- MEASUREMENT_DESCRIPTION: activity coefficient (dimensionless); of the first substance listed, at infinite dilution; xn = mol fraction of the nth substance listed
- TEST_CONTEXT: 378.15 K; 101.33 kPa; Liquid; Chromatography; x1 = 0
OBSERVABLE: activity coefficient
Answers are plain numbers.

Worked cases, answers included:
[
  {
    "COMPOUND": "COC(C)(C)C [2-methoxy-2-methylpropane] + CCCC[P+](CCCC)(CCCC)CCCC.O=S(=O)([N-]S(=O)(=O)C(F)(F)F)C(F)(F)F",
    "activity coefficient": 1.8
  },
  {
    "COMPOUND": "CCCCCCCCC [nonane] + CCCC[P+](CCCC)(CCCC)CCCC.O=S(=O)([N-]S(=O)(=O)C(F)(F)F)C(F)(F)F",
    "activity coefficient": 8.01
  }
]

Please report the measured activity coefficient for CCC(C)(C)C [2,2-dimethylbutane] + CCCC[P+](CCCC)(CCCC)CCCC.O=S(=O)([N-]S(=O)(=O)C(F)(F)F)C(F)(F)F
4.01

###

Assign activity coefficient to each entry below.
- MEASUREMENT_DESCRIPTION: activity coefficient (dimensionless); of the first substance listed, at infinite dilution; xn = mol fraction of the nth substance listed
- TEST_CONTEXT: 408.15 K; 101.33 kPa; Liquid; Chromatography; x1 = 0
Numbers only.

[
  {
    "MOLECULE": "CC(C)CC(C)(C)C [2,2,4-trimethylpentane] + CCCC[P+](CCCC)(CCCC)CCCC.O=S(=O)([N-]S(=O)(=O)C(F)(F)F)C(F)(F)F",
    "EXPERIMENTAL_VALUE": 5.39
  },
  {
    "MOLECULE": "CCOC(C)=O [ethyl acetate] + CCCC[P+](CCCC)(CCCC)CCCC.O=S(=O)([N-]S(=O)(=O)C(F)(F)F)C(F)(F)F",
    "EXPERIMENTAL_VALUE": 1.01
  },
  {
    "MOLECULE": "CCCO [propan-1-ol] + CCCC[P+](CCCC)(CCCC)CCCC.O=S(=O)([N-]S(=O)(=O)C(F)(F)F)C(F)(F)F",
    "EXPERIMENTAL_VALUE": 1.28
  },
  {
    "MOLECULE": "CCC(=O)CC [pentan-3-one] + CCCC[P+](CCCC)(CCCC)CCCC.O=S(=O)([N-]S(=O)(=O)C(F)(F)F)C(F)(F)F",
    "EXPERIMENTAL_VALUE": 0.781
  },
  {
    "MOLECULE": "C#CCCC [1-pentyne] + CCCC[P+](CCCC)(CCCC)CCCC.O=S(=O)([N-]S(=O)(=O)C(F)(F)F)C(F)(F)F",
    "EXPERIMENTAL_VALUE": 1.82
  }
]

Would you mind giving activity coefficient for every molecule in the list below?
1. Cc1ccccc1 [toluene] + CCCC[P+](CCCC)(CCCC)CCCC.O=S(=O)([N-]S(=O)(=O)C(F)(F)F)C(F)(F)F
2. CCCCCCCCC [nonane] + CCCC[P+](CCCC)(CCCC)CCCC.O=S(=O)([N-]S(=O)(=O)C(F)(F)F)C(F)(F)F
3. C=COC(C)=O [vinyl acetate] + CCCC[P+](CCCC)(CCCC)CCCC.O=S(=O)([N-]S(=O)(=O)C(F)(F)F)C(F)(F)F
4. CCO [ethanol] + CCCC[P+](CCCC)(CCCC)CCCC.O=S(=O)([N-]S(=O)(=O)C(F)(F)F)C(F)(F)F
5. Cc1cccc(C)c1 [1,3-dimethylbenzene] + CCCC[P+](CCCC)(CCCC)CCCC.O=S(=O)([N-]S(=O)(=O)C(F)(F)F)C(F)(F)F
6. CC(C)CO [2-methyl-1-propanol] + CCCC[P+](CCCC)(CCCC)CCCC.O=S(=O)([N-]S(=O)(=O)C(F)(F)F)C(F)(F)F

1.32
7.62
1.13
1.18
1.77
1.33

Would you mind giving activity coefficient for every molecule in the list below?
1. CC(C)c1ccccc1 [isopropylbenzene] + CCCC[P+](CCCC)(CCCC)CCCC.O=S(=O)([N-]S(=O)(=O)C(F)(F)F)C(F)(F)F
2. CCCCCCC [heptane] + CCCC[P+](CCCC)(CCCC)CCCC.O=S(=O)([N-]S(=O)(=O)C(F)(F)F)C(F)(F)F

1. 2.17
2. 5.33

Please report the measured activity coefficient for c1ccccc1 [benzene] + CCCC[P+](CCCC)(CCCC)CCCC.O=S(=O)([N-]S(=O)(=O)C(F)(F)F)C(F)(F)F
0.994

###

- MEASUREMENT_DESCRIPTION: activity coefficient (dimensionless); of the first substance listed, at infinite dilution; xn = mol fraction of the nth substance listed
- TEST_CONTEXT: 378.15 K; 101.33 kPa; Liquid; Chromatography; x1 = 0
Note to self: activity coefficient under 3 means true, ties and anything higher get false.

Field: example entries. Status: answers known.
[
  {
    "COMPOUND": "CC1CCCCC1 [methylcyclohexane] + CCCC[P+](CCCC)(CCCC)CCCC.O=S(=O)([N-]S(=O)(=O)C(F)(F)F)C(F)(F)F",
    "DISCRETE_LABEL": "false"
  },
  {
    "COMPOUND": "CCCc1ccccc1 [propylbenzene] + CCCC[P+](CCCC)(CCCC)CCCC.O=S(=O)([N-]S(=O)(=O)C(F)(F)F)C(F)(F)F",
    "DISCRETE_LABEL": "true"
  }
]

Dear colleague, could you confirm whether activity coefficient of C=CCCCC [hex-1-ene] + CCCC[P+](CCCC)(CCCC)CCCC.O=S(=O)([N-]S(=O)(=O)C(F)(F)F)C(F)(F)F falls below 3? Thanks.
false

###

Assign activity coefficient to each entry below.
- MEASUREMENT_DESCRIPTION: activity coefficient (dimensionless); of the first substance listed, at infinite dilution; xn = mol fraction of the nth substance listed
- TEST_CONTEXT: 398.15 K; 101.33 kPa; Liquid; Chromatography; x1 = 0
Give bare numbers.

Would you mind giving activity coefficient for every compound in the list below?
1. CCCOCCC [dipropyl ether] + CCCC[P+](CCCC)(CCCC)CCCC.O=S(=O)([N-]S(=O)(=O)C(F)(F)F)C(F)(F)F
2. C=CCCCCCCCC [1-decene] + CCCC[P+](CCCC)(CCCC)CCCC.O=S(=O)([N-]S(=O)(=O)C(F)(F)F)C(F)(F)F
3. CCCCCCC [heptane] + CCCC[P+](CCCC)(CCCC)CCCC.O=S(=O)([N-]S(=O)(=O)C(F)(F)F)C(F)(F)F
4. CCCCCCCCC [nonane] + CCCC[P+](CCCC)(CCCC)CCCC.O=S(=O)([N-]S(=O)(=O)C(F)(F)F)C(F)(F)F
5. C1CCCCCCC1 [cyclooctane] + CCCC[P+](CCCC)(CCCC)CCCC.O=S(=O)([N-]S(=O)(=O)C(F)(F)F)C(F)(F)F
6. C1CCCC1 [cyclopentane] + CCCC[P+](CCCC)(CCCC)CCCC.O=S(=O)([N-]S(=O)(=O)C(F)(F)F)C(F)(F)F
7. COC(C)(C)C [2-methoxy-2-methylpropane] + CCCC[P+](CCCC)(CCCC)CCCC.O=S(=O)([N-]S(=O)(=O)C(F)(F)F)C(F)(F)F

2.93
7.3
5.34
7.74
3.94
2.4
1.94

Would you mind giving activity coefficient for every compound in the list below?
1. Cc1ccc(C)cc1 [1,4-dimethylbenzene] + CCCC[P+](CCCC)(CCCC)CCCC.O=S(=O)([N-]S(=O)(=O)C(F)(F)F)C(F)(F)F
2. CCOC(C)(C)C [2-ethoxy-2-methylpropane] + CCCC[P+](CCCC)(CCCC)CCCC.O=S(=O)([N-]S(=O)(=O)C(F)(F)F)C(F)(F)F
3. CC(C)CC(C)(C)C [2,2,4-trimethylpentane] + CCCC[P+](CCCC)(CCCC)CCCC.O=S(=O)([N-]S(=O)(=O)C(F)(F)F)C(F)(F)F
4. CCOC(C)=O [ethyl acetate] + CCCC[P+](CCCC)(CCCC)CCCC.O=S(=O)([N-]S(=O)(=O)C(F)(F)F)C(F)(F)F
5. Cc1ccccc1 [toluene] + CCCC[P+](CCCC)(CCCC)CCCC.O=S(=O)([N-]S(=O)(=O)C(F)(F)F)C(F)(F)F
6. C=CCCCCCC [oct-1-ene] + CCCC[P+](CCCC)(CCCC)CCCC.O=S(=O)([N-]S(=O)(=O)C(F)(F)F)C(F)(F)F

1.74
2.96
5.39
0.975
1.28
4.98

###

- MEASUREMENT_DESCRIPTION: activity coefficient (dimensionless); of the first substance listed, at infinite dilution; xn = mol fraction of the nth substance listed
- TEST_CONTEXT: 398.15 K; 101.33 kPa; Liquid; Chromatography; x1 = 0
# binarize activity coefficient: threshold 2 inclusive, high side Satisfied, low side Not satisfied

Field: example entries. Status: answers known.
[
  {
    "COMPOUND": "C#CCCC [1-pentyne] + CCCC[P+](CCCC)(CCCC)CCCC.O=S(=O)([N-]S(=O)(=O)C(F)(F)F)C(F)(F)F",
    "DISCRETE_LABEL": "Not satisfied"
  },
  {
    "COMPOUND": "CCCc1ccccc1 [propylbenzene] + CCCC[P+](CCCC)(CCCC)CCCC.O=S(=O)([N-]S(=O)(=O)C(F)(F)F)C(F)(F)F",
    "DISCRETE_LABEL": "Satisfied"
  },
  {
    "COMPOUND": "CCc1ccccc1 [ethylbenzene] + CCCC[P+](CCCC)(CCCC)CCCC.O=S(=O)([N-]S(=O)(=O)C(F)(F)F)C(F)(F)F",
    "DISCRETE_LABEL": "Not satisfied"
  }
]

// inclusive: activity coefficient at least 2? input: C#CCCCCCC [1-octyne] + CCCC[P+](CCCC)(CCCC)CCCC.O=S(=O)([N-]S(=O)(=O)C(F)(F)F)C(F)(F)F
Satisfied

// inclusive: activity coefficient at least 2? input: c1ccccc1 [benzene] + CCCC[P+](CCCC)(CCCC)CCCC.O=S(=O)([N-]S(=O)(=O)C(F)(F)F)C(F)(F)F
Not satisfied

// inclusive: activity coefficient at least 2? input: CCCCC [pentane] + CCCC[P+](CCCC)(CCCC)CCCC.O=S(=O)([N-]S(=O)(=O)C(F)(F)F)C(F)(F)F
Satisfied

// inclusive: activity coefficient at least 2? input: O [water] + CCCC[P+](CCCC)(CCCC)CCCC.O=S(=O)([N-]S(=O)(=O)C(F)(F)F)C(F)(F)F
Satisfied
